Assay: RPMI8226 myeloma cell viability, profiling panel, resazurin fluorescence, basal, 24 h, PK04 Diversity Set (AID 1180);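 further: RPMI8826 multiple myeloma cell line at 5000 cells per well; test concentration not given here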
Conditions: higher = more signal
Kindly state z-score for each of the entries shown.
Just the number, please, no unit after it.

Tell me its z-score given "COC(=O)[C@@]1(CCC(=O)OC(C)(C)C)COC(c2ccc(OCCCO)cc2)=N1" as the entry.
1.1

Hello, please tell me recorded z-score for this one: "COc1ccc(C#Cc2ccc3c(c2)[C@]2(C(=O)N3)[C@H](c3ccc(O)cc3)N3[C@H](c4ccccc4)[C@H](c4ccccc4)OC(=O)[C@H]3[C@@H]2C(=O)N2CCN(c3ncccn3)CC2)cc1"
1.19

Return value of z-score for input "COc1ccc([Si](C)(C)[C@@H]2[C@@H](CC(=O)N3CCC[C@H]3CO)O[C@]3(C(=O)N(Cc4ccc(N5CCC5=O)cc4)c4ccccc43)[C@H]2C)cc1" , no commentary.
-5.16

====

For each of the compounds below, state its composite z-score.
System: Wnt5a (protein binding on small-molecule microarray)
Assay: Wnt5a binders on small-molecule microarray, primary screen, biophysical, 635/667 nm fluorescence (AID 1142);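 further: fluorescence read at 667 nm with signal to noise per printed feature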
Conditions: 635 nm fluorescence, higher = more signal
The answer should be a number; do not append a unit.

Under Wnt5a (protein binding on small-molecule microarray), report composite z-score for "CC(C)CNC(=O)[C@@H]1c2ccccc2C(=O)N(Cc2ccc(OC(F)(F)F)cc2)[C@H]1c1ccc(CO)cc1"
0.314

Fill: composite z-score (Wnt5a (protein binding on small-molecule microarray)) for this compound "C=C(COC)C(=O)CC[C@@H](OC(=O)c1ccccc1-c1ccccc1C(=O)O)c1cccc(OCCO)c1"
0.0174

Report composite z-score on Wnt5a (protein binding on small-molecule microarray) for this entry: "COc1ccc(/C=C/C(=O)c2cccc(OCC(=O)OC(C)(C)C)c2)cc1"
-0.132

Under Wnt5a (protein binding on small-molecule microarray): report composite z-score of "C=CCNC(=O)[C@@H]1[C@H]2C(=O)O[C@H](c3ccccc3)[C@H](c3ccccc3)N2[C@H](c2ccc(O)cc2)[C@@]12C(=O)Nc1ccccc12" .
0.154

Supply composite z-score measured with Wnt5a (protein binding on small-molecule microarray) for CCCCCN1CC=CC23O[C@@H]4/C=C\CCC(C)OC(=O)C4[C@H]2C(=O)N(CCCO)[C@@H]3C1=O (some centres undefined) .
0.0429

Give reported composite z-score for "C=C(C(=O)CC[C@H](OC(C)=O)c1ccc(CO)o1)C(C)C" (Wnt5a (protein binding on small-molecule microarray))
0.0615

State the measured composite z-score (Wnt5a (protein binding on small-molecule microarray)) of "C=CCOC(=O)[C@H]1[C@@H]2C(=O)O[C@@H](c3ccccc3)[C@@H](c3ccccc3)N2[C@@H](c2ccc(OCCOC(=O)[C@H]3C[C@H]4C(=O)N5CCC[C@H]5C(=O)N4[C@H]3c3cccc(OCCO)c3)cc2)[C@]12C(=O)Nc1ccccc12"
0.135

Fetch value of composite z-score on Wnt5a (protein binding on small-molecule microarray) for C#CCN1C(C(=O)OCC)OC[C@H]1c1ccccc1 (some centres undefined) .
0.0718

Find the measured composite z-score of "C=CCN1C(=O)[C@@]2(O[C@@H](CCO)[C@H]([Si](C)(C)c3ccc(OC)cc3)[C@H]2C)c2cc(N3C(=O)c4cccc5cccc3c45)ccc21" with Wnt5a (protein binding on small-molecule microarray) as test system.
-0.1

Find composite z-score for "C=CCN1C(=O)[C@@]2(O[C@@H](CCn3cc(CCO)nn3)[C@H]([Si](C)(C)c3ccc(OC)cc3)[C@H]2C)c2cc(N3C(=O)c4cccc5cccc3c45)ccc21" on Wnt5a (protein binding on small-molecule microarray) and write it down.
0.662

Provide composite z-score, tested on Wnt5a (protein binding on small-molecule microarray), for "COc1ccc([Si](C)(C)[C@@H]2[C@@H](CC(=O)N3CCC[C@H]3CO)O[C@]3(C(=O)N(Cc4ccc(N5CCC5=O)cc4)c4ccccc43)[C@H]2C)cc1" .
0.0507

Write down measured composite z-score (Wnt5a (protein binding on small-molecule microarray)) for this compound. "COC(=O)C(CC#Cc1ccc2c(c1)[C@]1(C(=O)N2)[C@H](c2ccccc2OCCO)N2[C@H](c3ccccc3)[C@H](c3ccccc3)OC(=O)[C@H]2[C@@H]1C(=O)N1CCCCCCC1)C(=O)OC"
2.33

For Wnt5a (protein binding on small-molecule microarray), give the measured composite z-score of the entry "COCCCNC(=O)[C@@]1(CCS(=O)(=O)c2ccccc2)N=C(c2ccc(OCCCO)cc2)O[C@H]1c1ccccc1CN=[N+]=[N-]"
0.671

State, for Wnt5a (protein binding on small-molecule microarray), measured composite z-score of the compound listed here: "O=C1c2ccccc2[C@](Cc2ccccc2I)(C(=O)O)[C@H](c2ccc(CO)cc2)N1Cc1ccccc1Cl"
0.0716

====

Test: A549 lung cancer cell viability effects, profiling panel, resazurin fluorescence, 24 h, PK04 Diversity Set (AID 1171); further: test concentration not given here
Details: higher = more signal, called active from +8 up or from −8 down
Can you tell me z-score for the items I'm about to list?
Write the number on its own, no unit after it.

Using known records, supply z-score for CCCCCN1CC=CC23O[C@@H]4/C=C\CCC(C)OC(=O)C4[C@H]2C(=O)N(CCO)[C@@H]3C1=O (stereo not given in full)
0.095

Report z-score, nothing else, for this compound: "COc1ccc([Si](C)(C)[C@H]2[C@H](CC(=O)N(CCO)Cc3ccccc3)O[C@@]3(C(=O)N(Cc4cccc(N5C(=O)COc6ccccc65)c4)c4ccccc43)[C@@H]2C)cc1"
-0.899

Give recorded z-score. "O=C1c2ccccc2C(=O)c2cc([C@H]3Oc4ccccc4S(=O)(=O)N4CCC[C@@H]34)ccc21"
0.623

Answer with the recorded z-score of "NCCCCCCNC(=O)[C@@H]1C[C@@H]2C(=O)N[C@@H](Cc3ccccc3)C(=O)N2[C@@H]1c1ccc(O)cc1" only.
1.19

Please give the documented z-score of "CCCC[C@@H](O)C1=C(C)C[C@H]2C(=O)N(C)C(=O)[C@H]2[C@H]1CO"
0.199

Query z-score for "COC(=O)C(CC#Cc1ccc2c(c1)[C@]1(C(=O)N2)[C@H](c2ccccc2OCCO)N2[C@H](c3ccccc3)[C@H](c3ccccc3)OC(=O)[C@H]2[C@@H]1C(=O)N1CCCCCCC1)C(=O)OC"
1.9

Assign z-score to the following record: "C=C(COC)C(=O)CC[C@H](OC(=O)c1ccccc1-c1ccccc1C(=O)O)c1ccccc1OCCO"
0.283

Give z-score for the following compound: "CCCCC(=C=CC[C@@H](O)c1ccc(OCCO)cc1)C[C@@H](O)c1cc(Cl)cc(Cl)c1O"
2.58

Provide z-score value for the following compound: C#CCN1C(C(=O)OCC)OC[C@H]1c1ccccc1 (stereo not given in full)
-0.282

Fill in z-score for record "CC(C)C(=C=CC[C@H](O)c1ccc(OCCO)cc1)C[C@H](O)COCc1ccccc1"
0.515

Entry "COc1ccc([Si](C)(C)[C@@H]2[C@@H](CCn3cc([C@H](O)c4ccccc4)nn3)O[C@]3(C(=O)N(C)c4c(Br)cc(C)cc43)[C@H]2C)cc1" needs its z-score filled in; supply it.
-2.49

Give me measured z-score, please, for this compound: "C=CC[C@@]1(C(=O)NCc2ccccc2)N=C(c2ccc(OCCCO)cc2)O[C@@H]1c1ccccc1"
0.0074

Give recorded z-score. "C#CCOc1ccc(C[C@H]2C(=O)O[C@H](Cc3ccccc3)[C@H](/C=C/C3CC3)N2CC#C)cc1"
1.51

Write down z-score measured for item C=CCC(OC(C)=O)[C@@H]1[C@@H](N(Cc2cccc3ccccc23)C(=O)c2cccc3ccccc23)c2cc(OCCCO)ccc2N1C(=O)Cc1ccc(OC)cc1 (stereo not given in full)
-0.245

Return value of z-score for input "C=CCN1C(=O)[C@@]2(O[C@@H](CCO)[C@H]([Si](C)(C)c3ccc(OC)cc3)[C@H]2C)c2cc(N3C(=O)c4cccc5cccc3c45)ccc21" , no commentary.
-4.58

====

Molecular target: Neurogenic locus notch homolog protein 3 (Homo sapiens) (UniProt Q9UM47)
Sequence (Q9UM47 whole entry, looked up): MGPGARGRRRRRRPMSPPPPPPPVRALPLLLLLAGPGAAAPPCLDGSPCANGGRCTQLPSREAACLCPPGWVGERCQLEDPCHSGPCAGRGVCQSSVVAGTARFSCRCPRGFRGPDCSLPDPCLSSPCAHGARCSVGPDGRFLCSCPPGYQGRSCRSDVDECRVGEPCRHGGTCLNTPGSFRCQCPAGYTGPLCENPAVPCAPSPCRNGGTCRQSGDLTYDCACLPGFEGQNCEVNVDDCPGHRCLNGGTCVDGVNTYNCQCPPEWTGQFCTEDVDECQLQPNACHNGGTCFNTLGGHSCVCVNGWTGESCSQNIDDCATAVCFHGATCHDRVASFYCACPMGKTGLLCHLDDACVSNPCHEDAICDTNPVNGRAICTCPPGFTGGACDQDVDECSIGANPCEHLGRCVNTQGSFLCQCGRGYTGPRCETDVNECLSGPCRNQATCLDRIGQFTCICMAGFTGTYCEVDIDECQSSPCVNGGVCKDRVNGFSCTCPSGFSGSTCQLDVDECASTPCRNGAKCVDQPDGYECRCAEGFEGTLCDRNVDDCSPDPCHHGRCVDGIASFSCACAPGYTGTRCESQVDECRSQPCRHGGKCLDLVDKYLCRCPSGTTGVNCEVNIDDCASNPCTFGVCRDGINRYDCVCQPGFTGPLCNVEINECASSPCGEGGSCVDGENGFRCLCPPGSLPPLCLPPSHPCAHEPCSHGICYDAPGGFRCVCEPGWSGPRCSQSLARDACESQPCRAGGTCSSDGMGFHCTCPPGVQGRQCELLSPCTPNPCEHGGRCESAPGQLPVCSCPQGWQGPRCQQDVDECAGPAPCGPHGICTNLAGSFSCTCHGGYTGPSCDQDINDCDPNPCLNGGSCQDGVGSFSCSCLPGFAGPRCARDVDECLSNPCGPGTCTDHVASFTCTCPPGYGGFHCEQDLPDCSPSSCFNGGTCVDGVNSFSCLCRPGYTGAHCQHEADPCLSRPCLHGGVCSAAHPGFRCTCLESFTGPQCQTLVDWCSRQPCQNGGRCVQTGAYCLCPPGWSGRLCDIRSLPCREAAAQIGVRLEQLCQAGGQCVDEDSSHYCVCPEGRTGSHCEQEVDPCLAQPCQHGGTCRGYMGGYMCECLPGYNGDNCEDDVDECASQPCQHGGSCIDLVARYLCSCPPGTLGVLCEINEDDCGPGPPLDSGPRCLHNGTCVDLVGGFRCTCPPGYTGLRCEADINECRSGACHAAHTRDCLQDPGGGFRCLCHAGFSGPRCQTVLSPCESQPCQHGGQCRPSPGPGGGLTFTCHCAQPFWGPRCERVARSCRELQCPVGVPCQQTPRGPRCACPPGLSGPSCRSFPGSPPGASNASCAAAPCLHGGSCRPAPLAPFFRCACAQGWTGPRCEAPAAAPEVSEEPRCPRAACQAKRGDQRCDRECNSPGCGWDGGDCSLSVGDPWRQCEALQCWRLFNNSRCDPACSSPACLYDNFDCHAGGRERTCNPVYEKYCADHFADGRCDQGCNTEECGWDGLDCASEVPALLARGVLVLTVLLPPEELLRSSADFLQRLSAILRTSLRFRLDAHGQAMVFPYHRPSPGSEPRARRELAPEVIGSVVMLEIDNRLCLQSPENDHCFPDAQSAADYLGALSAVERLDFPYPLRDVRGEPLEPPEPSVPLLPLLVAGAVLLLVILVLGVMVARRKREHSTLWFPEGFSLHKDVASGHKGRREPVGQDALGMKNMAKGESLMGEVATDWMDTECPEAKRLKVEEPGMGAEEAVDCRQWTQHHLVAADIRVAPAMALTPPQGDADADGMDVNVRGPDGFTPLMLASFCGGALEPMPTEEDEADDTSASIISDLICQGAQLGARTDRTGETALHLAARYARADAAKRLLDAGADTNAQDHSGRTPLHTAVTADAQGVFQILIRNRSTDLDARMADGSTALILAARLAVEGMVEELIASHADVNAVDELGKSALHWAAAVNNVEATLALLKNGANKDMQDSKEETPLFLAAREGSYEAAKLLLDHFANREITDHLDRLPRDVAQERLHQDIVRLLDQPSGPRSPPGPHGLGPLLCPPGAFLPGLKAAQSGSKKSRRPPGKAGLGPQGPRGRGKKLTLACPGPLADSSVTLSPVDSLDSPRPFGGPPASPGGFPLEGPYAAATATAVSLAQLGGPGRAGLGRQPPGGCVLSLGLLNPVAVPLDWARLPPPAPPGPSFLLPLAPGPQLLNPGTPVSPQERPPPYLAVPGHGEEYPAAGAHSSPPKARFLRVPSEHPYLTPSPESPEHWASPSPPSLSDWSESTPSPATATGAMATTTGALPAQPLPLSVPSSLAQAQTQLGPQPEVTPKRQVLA
Test: NOTCH3 binders on small-molecule microarray, primary screen, biochemical, 635/667 nm fluorescence (AID 1096)
Details: NOTCH3 binding, 635 nm fluorescence, higher = more signal
1 means recorded composite z-score is -0.3 or above; -1 means it is below -0.3.

Check this compound for composite z-score at or above -0.3: "COCCOC(=O)N1C(=O)[C@@]2(c3cc(C#CC4(O)CCCCCC4)ccc31)[C@H](C(=O)NC[C@H](O)c1ccccc1)[C@H]1C(=O)O[C@H](c3ccccc3)[C@H](c3ccccc3)N1[C@@H]2c1ccccc1OCCO"
1

Confirm if composite z-score reported for the compound "C=C(/C(=C/C[C@H](OC(C)=O)c1cccc(OCCO)c1)c1cc(C(=O)OC)ccc1OC)C(C)C" is -0.3 or above.
-1

Reported composite z-score reaches at least -0.3 for CCN(CC)c1ccc(N2CC=CC34O[C@@H]5C=CCOC(=O)[C@@H]5[C@H]3C(=O)N(C(C)CO)[C@@H]4C2=O)cc1 (some centres not stated) ?
-1

Evaluate "C=C(COC)/C(=C/C[C@H](OC(C)=O)c1cccc(OCCO)c1)c1cc(C(=O)OC)ccc1OC" : composite z-score at minimum -0.3?
1

Answer whether composite z-score of "O=C1c2ccccc2C(=O)c2cc([C@H]3Oc4ccccc4S(=O)(=O)N4CCC[C@@H]34)ccc21" is greater than or equal to -0.3.
1

Please indicate if the recorded composite z-score for "CC(C)NC(=O)[C@@H]1c2ccccc2C(=O)N(Cc2cc(F)cc(C(F)(F)F)c2)[C@H]1c1ccc(CO)cc1" meets or exceeds -0.3.
-1

Identify whether the reported composite z-score of the following compound is -0.3 or greater: "CO[C@H]1O[C@H](CO)[C@@H](OC(=O)Nc2ccccc2)[C@H](OC(=O)Nc2ccc3c(c2)OCO3)[C@H]1OC(=O)Nc1ccc2c(c1)OCO2"
1
